# Assayed target: EGFR T790M L858R (Homo sapiens, UniProt P00533, L858R/T790M)
# Sequence (P00533 25-1210 T790M/L858R): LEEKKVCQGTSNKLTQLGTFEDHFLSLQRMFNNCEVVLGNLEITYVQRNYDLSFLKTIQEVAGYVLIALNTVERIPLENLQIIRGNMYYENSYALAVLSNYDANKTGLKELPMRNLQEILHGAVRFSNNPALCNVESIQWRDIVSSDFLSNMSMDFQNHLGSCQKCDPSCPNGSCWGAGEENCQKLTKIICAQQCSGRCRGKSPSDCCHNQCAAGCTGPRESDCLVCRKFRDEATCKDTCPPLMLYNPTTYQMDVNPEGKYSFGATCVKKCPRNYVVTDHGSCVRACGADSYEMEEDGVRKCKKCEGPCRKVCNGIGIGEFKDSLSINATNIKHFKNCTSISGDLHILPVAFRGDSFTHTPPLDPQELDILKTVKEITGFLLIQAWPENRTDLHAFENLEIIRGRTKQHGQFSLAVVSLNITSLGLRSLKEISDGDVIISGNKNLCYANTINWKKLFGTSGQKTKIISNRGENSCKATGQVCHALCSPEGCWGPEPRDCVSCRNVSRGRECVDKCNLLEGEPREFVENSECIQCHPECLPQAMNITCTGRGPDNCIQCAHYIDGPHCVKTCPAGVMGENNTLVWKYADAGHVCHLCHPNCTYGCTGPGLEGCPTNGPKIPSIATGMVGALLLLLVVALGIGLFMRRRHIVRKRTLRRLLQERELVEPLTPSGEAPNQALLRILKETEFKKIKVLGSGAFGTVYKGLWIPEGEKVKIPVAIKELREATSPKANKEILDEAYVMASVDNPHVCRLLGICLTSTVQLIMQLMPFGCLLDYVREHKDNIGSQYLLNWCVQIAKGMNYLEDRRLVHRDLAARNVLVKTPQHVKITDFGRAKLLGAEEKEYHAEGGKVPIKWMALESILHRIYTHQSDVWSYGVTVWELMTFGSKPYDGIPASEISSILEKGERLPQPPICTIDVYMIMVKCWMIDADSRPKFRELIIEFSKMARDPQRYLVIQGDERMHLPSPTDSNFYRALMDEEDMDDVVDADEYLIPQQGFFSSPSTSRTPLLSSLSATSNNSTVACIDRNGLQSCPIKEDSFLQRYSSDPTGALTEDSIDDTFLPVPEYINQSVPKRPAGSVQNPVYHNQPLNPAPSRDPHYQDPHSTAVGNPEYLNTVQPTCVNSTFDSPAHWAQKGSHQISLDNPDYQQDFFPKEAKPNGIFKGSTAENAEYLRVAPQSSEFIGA
# Experimental protocol: EGFR T790M L858R biochemical assay (Caliper mobility shift)
# Test context: 5 μM ATP; apparent Ki (Morrison fit) converted by Cheng-Prusoff, Km of ATP 1.3 μM
Readout name: Ki (nM)
Write the value in nM as a bare number.

Ask: Quickly give me recorded Ki for CC(C)n1nc(N2CCS(=O)(=O)CC2)c2cnc(Nc3ccnc(-c4cnn(S(=O)(=O)C5CC5)c4)n3)cc21
Reply: 609

Ask: Quickly give me recorded Ki for CC(C)n1nc(N(C)CC(O)CO)c2cnc(Nc3ccnc(-c4cnn(S(=O)(=O)C5CC5)c4)n3)cc21 (stereo not shown)
Reply: 0.7

Ask: Quickly give me recorded Ki for CC(C)n1nc(NC2CCS(=O)(=O)C2)c2cnc(Nc3ccnc(-c4cnn(S(=O)(=O)C5CC5)c4)n3)cc21 (stereo not shown)
Reply: 2

Ask: Quickly give me recorded Ki for CC(C)n1nc(N2CC[C@H](O)C2)c2cnc(Nc3ccnc(-c4cnn(S(=O)(=O)C5CC5)c4)n3)cc21
Reply: 0.6

Ask: Quickly give me recorded Ki for CC(C)n1nc(N2CCC(C(=O)N(C)C)C2)c2cnc(Nc3ccnc(-c4cnn(S(=O)(=O)C5CC5)c4)n3)cc21 (stereo not shown)
Reply: 1.1

Ask: Quickly give me recorded Ki for CCC(C)n1nc(N2CC[C@@H](O)C2)c2cnc(Nc3ccnc(N4CCC(C)(O)CC4)n3)cc21 (stereo partly shown)
Reply: 1.5

###

Please go through the items and note down their pKi.
# Assayed target: EGFR T790M L858R (Homo sapiens, UniProt P00533, L858R/T790M)
# Experimental protocol: EGFR T790M L858R biochemical assay (Caliper mobility shift)
# Test context: 5 μM ATP; apparent Ki (Morrison fit) converted by Cheng-Prusoff, Km of ATP 1.3 μM
# Procedure: The exemplified compounds described herein were tested according to the assay below. The enzyme data reported in Tables 4-5 is generally a representative of multiple experiments. Reactions proceed for 30 minutes at room temperature (22° C.) and are terminated with 80 mM 2,2′,2″,2′″-(ethane-1,2-diyldinitrilo)tetraacetic acid (EDTA). Product is detected using the Caliper mobility shift detection method where product and substrate are electrophoretically separated and measured.
// scale note: pKi = -log10(conc_M); give the bare number

Ask: Quickly give me recorded pKi for CC(C)n1nc(C#N)c2cnc(Nc3ccnc(-c4cnn(S(=O)(=O)C5CC5)c4)n3)cc21
Reply: 6.96

Ask: Quickly give me recorded pKi for CCC(C)n1nc(N2CC3(COC3)C2)c2cnc(Nc3ccnc(N4CC[C@@H](O)[C@@H](F)C4)n3)cc21 (single isomer, unassigned) [Example 198]
Reply: 8.82

Ask: Quickly give me recorded pKi for CCC(C)n1nc(N2CC[C@@H](C(N)=O)C2)c2cnc(Nc3ccnc(N4CCC(C)(O)CC4)n3)cc21 (stereo partly drawn)
Reply: 8.85

Ask: Quickly give me recorded pKi for CC(C)c1nn(C(C)C)c2cc(Nc3ccnc(-c4cnn(S(=O)(=O)C5CC5)c4)n3)ncc12
Reply: 7.63

Ask: Quickly give me recorded pKi for CC(C)n1nc(N2CCOCC2)c2cnc(Nc3ccnc(N4CCC(O)C(C)(C)C4)n3)cc21 (stereo not drawn)
Reply: 8.59

Ask: Quickly give me recorded pKi for CCC(C)n1nc(N2CC[C@@H](O)C2)c2cnc(Nc3ccnc(N4CCC(CC#N)(OC)CC4)n3)cc21 (mixture of isomers)
Reply: 8.19

Ask: Quickly give me recorded pKi for CC(n1nc(N2CCNC2=O)c2cnc(Nc3ccnc(N4CCC(C)(O)CC4)n3)cc21)C(F)(F)F (stereo not drawn)
Reply: 8.21

Ask: Quickly give me recorded pKi for CC(C)n1nc(N2CC(C(=O)N3CC[C@@H](O)C3)C2)c2cnc(Nc3ccnc(-c4cnn(S(=O)(=O)C5CC5)c4)n3)cc21
Reply: 8.92

Ask: Quickly give me recorded pKi for CC(C)n1nc(N2CC3CCC(C2)O3)c2cnc(Nc3ccnc(-c4cnn(S(=O)(=O)C5CC5)c4)n3)cc21
Reply: 8.48

Ask: Quickly give me recorded pKi for CC(C)n1nc(N2CCOCC2)c2cnc(Nc3ccnc(NCC(C)(C)S(C)(=O)=O)n3)cc21
Reply: 8.06

Ask: Quickly give me recorded pKi for CCC(C)n1nc(N2C[C@@H](CO)NC2=O)c2cnc(Nc3ccnc(N4CCC(C)(O)CC4)n3)cc21 (mixture of isomers)
Reply: 8.48

###

# Assayed target: EGFR T790M L858R (Homo sapiens, UniProt P00533, L858R/T790M)
# Experimental protocol: EGFR T790M L858R biochemical assay (Caliper mobility shift)
# Test context: 5 μM ATP; apparent Ki (Morrison fit) converted by Cheng-Prusoff, Km of ATP 1.3 μM
Readout name: pKi
// scale note: pKi = -log10(conc_M); give the bare number

Ask: Quickly give me recorded pKi for CCC(C)n1nc(N2CCS(=N)(=O)CC2)c2cnc(Nc3ccnc(N4CCC(C)(O)CC4)n3)cc21 (centres unmarked) [Example 89]
Reply: 7.58

Ask: Quickly give me recorded pKi for CC(C)n1nc(N2CC3(CN(CC(F)(F)F)C3)C2)c2cnc(Nc3ccnc(-c4cnn(S(=O)(=O)C5CC5)c4)n3)cc21 [Example 126]
Reply: 8.28

Ask: Quickly give me recorded pKi for CC(C)n1nc(N2CC(C#N)CC2=O)c2cnc(Nc3ccnc(N4CCC(C)(O)CC4)n3)cc21 (centres unmarked) [Example 137]
Reply: 8.00

Ask: Quickly give me recorded pKi for CC(C)n1nc(C2CCOC2)c2cnc(Nc3ccnc(-c4cnn(S(=O)(=O)C5CC5)c4)n3)cc21 (centres unmarked) [Example 19]
Reply: 8.31

Ask: Quickly give me recorded pKi for CC(C)n1nc(N2CCC(C)(O)C2)c2cnc(Nc3ccnc(N4CC[C@@H](O)[C@@H](F)C4)n3)cc21 (relative stereo) [Example 104]
Reply: 8.80

Ask: Quickly give me recorded pKi for CCC(C)n1nc(N2CCCC2=O)c2cnc(Nc3ccnc(N4CC[C@@H](O)[C@@H](F)C4)n3)cc21 (some centres unmarked) [Example 200]
Reply: 8.92

Ask: Quickly give me recorded pKi for CC(C)n1nc(NC2CNC(=O)C2)c2cnc(Nc3ccnc(N4CCC(C)(O)CC4)n3)cc21 (centres unmarked) [Example 77]
Reply: 7.73

Ask: Quickly give me recorded pKi for CC(C)n1nc(NC(C)(C)C#N)c2cnc(Nc3ccnc(N4CC[C@H](O)[C@H](F)C4)n3)cc21 (racemic) [Example 183]
Reply: 7.46

Ask: Quickly give me recorded pKi for CCC(C)n1nc(N2CCNC2=O)c2cnc(Nc3ccnc(N4CCC(S(C)(=O)=O)CC4)n3)cc21 (racemic) [Example 102]
Reply: 8.66

Ask: Quickly give me recorded pKi for CC(C)n1nc(N2CC[C@@H](O)C2)c2cnc(Nc3ccnc(N4C[C@@H](F)[C@@H](O)C(C)(C)C4)n3)cc21 (racemic) [Example 148]
Reply: 8.74

Ask: Quickly give me recorded pKi for CC(C)n1nc(N2CC3(COC3)C2)c2cnc(Nc3ccnc(-c4cnn(S(=O)(=O)C5CC5)c4)n3)cc21 [Example 5]
Reply: 9.00

Ask: Quickly give me recorded pKi for CCNC(=O)C1CN(c2nn(C(C)C)c3cc(Nc4ccnc(-c5cnn(S(=O)(=O)C6CC6)c5)n4)ncc23)C1 [Example 162]
Reply: 9.00

Ask: Quickly give me recorded pKi for CC(C)n1nc(N2CCC2)c2cnc(Nc3ccnc(-c4cnn(S(=O)(=O)C5CC5)c4)n3)cc21 [Example 54]
Reply: 9.15

Ask: Quickly give me recorded pKi for CCC(C)n1nc(N2CC[C@@H](O)C2)c2cnc(Nc3ccnc(N4CC[C@H](O)[C@H](F)C4)n3)cc21 (some centres unmarked) [Example 196]
Reply: 9.05

Ask: Quickly give me recorded pKi for CC[C@H](C)n1nc(N2CC3(COC3)C2)c2cnc(Nc3ccnc(N4CC[C@@](C)(O)[C@@H](F)C4)n3)cc21 (single isomer, unassigned) [Example 66]
Reply: 8.68

Ask: Quickly give me recorded pKi for CCC(C)n1nc(N2CCNC2=O)c2cnc(Nc3ccnc(NCC(C)(C)S(C)(=O)=O)n3)cc21 (racemic) [Example 101]
Reply: 8.64

Ask: Quickly give me recorded pKi for CC(C)Oc1nn(C(C)C)c2cc(Nc3ccnc(-c4cnn(S(=O)(=O)C5CC5)c4)n3)ncc12 [Example 62]
Reply: 7.92

Ask: Quickly give me recorded pKi for CC(C)n1nc(N2CC(C#N)C2)c2cnc(Nc3ccnc(-c4cnn(S(=O)(=O)C5CC5)c4)n3)cc21 [Example 155]
Reply: 9.00

Ask: Quickly give me recorded pKi for CC(C)n1nc(N2CC(F)(CO)C2)c2cnc(Nc3ccnc(N4CC[C@H](O)[C@H](F)C4)n3)cc21 (racemic) [Example 130]
Reply: 8.74

Ask: Quickly give me recorded pKi for COC1CCN(c2nccc(Nc3cc4c(cn3)c(C(N)=O)nn4C(C)C)n2)CC1 [Example 11]
Reply: 7.54
